These measurements were taken from the supplement of paper PMC9233669.

# System: biotinyl-Phe-oxazolone
# ASSAY_REMARKS: self-aminoacylation, catalytic enhancement (BFO) (fold over background); higher = more active; k-Seq, kA / k0A0; sequences stand for … in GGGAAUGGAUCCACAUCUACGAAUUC…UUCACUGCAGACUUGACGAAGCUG
Variants at the floor of the assay were thinned out.
Using self-aminoacylation as the sorting value, the categories are lower range: < 1; middle range: ≥ 1 and < 10; upper range: ≥ 10

Use the examples below as a reference point.
{"RESIDUES": "AUUUGCCUGGUCAUCGAGUGA [Fam2.1 aminoacylation ribozyme variant]", "CATEGORY": "upper range"}
{"RESIDUES": "AAGUUUGCUAAUAGCCGCACG [Fam3.1 aminoacylation ribozyme variant]", "CATEGORY": "middle range"}
{"RESIDUES": "CAGUUUGCUAAUAGCCGCAAG [Fam3.1 aminoacylation ribozyme variant]", "CATEGORY": "middle range"}
{"RESIDUES": "AUUACCCUGGUAAUCUAGUGA [Fam2.1 aminoacylation ribozyme variant]", "CATEGORY": "upper range"}
{"RESIDUES": "CUACUUAAACCAAUCGGUCUG [Fam1A.1 aminoacylation ribozyme variant]", "CATEGORY": "lower range"}
{"RESIDUES": "CUACUUCAAACAAUCCUUCUG [Fam1A.1 aminoacylation ribozyme variant]", "CATEGORY": "middle range"}

Tag the class for AUUAGCCUGGUCAUCGAGAGA [Fam2.1 aminoacylation ribozyme variant]
middle range

Tag the class for AAGUUUACUAAUAGUCGCACG [Fam3.1 aminoacylation ribozyme variant]
middle range

Tag the class for AUUACCCUGGUCUUCAAGUGA [Fam2.1 aminoacylation ribozyme variant]
upper range

Tag the class for AUUAACCUGGUGAUCGAGUGA [Fam2.1 aminoacylation ribozyme variant]
upper range

Tag the class for AUUCACCUAGGUCCUCGAGUG [Fam2.2 aminoacylation ribozyme variant]
middle range

Tag the class for CCACACUUCAAGCAUUAGGUC [Fam1B.1 aminoacylation ribozyme variant]
lower range

Tag the class for AUUACCCUGAUCAUCGAGUGU [Fam2.1 aminoacylation ribozyme variant]
middle range

Tag the class for CCACACUUGAACCAAUCGGUC [Fam1B.1 aminoacylation ribozyme variant]
lower range

Tag the class for AAGUUUGCGAAUAGUCCCAAG [Fam3.1 aminoacylation ribozyme variant]
middle range

Tag the class for AAGAUUGCUAAUAGUCGCAAA [Fam3.1 aminoacylation ribozyme variant]
middle range

Tag the class for AUUCGCCUAGGUCAUCCGGUG [Fam2.2 aminoacylation ribozyme variant]
upper range

Tag the class for CUACUUCAAGCAAUCGGGCUG [Fam1A.1 aminoacylation ribozyme variant]
middle range

Tag the class for AUUACCCUGGAAAUCGAGUGA [Fam2.1 aminoacylation ribozyme variant]
upper range

Tag the class for AUGCACCUGGGUCAUCGGGUG [Fam2.2 aminoacylation ribozyme variant]
upper range

Tag the class for AUGUUCGCUAAUAGUCGCAAG [Fam3.1 aminoacylation ribozyme variant]
middle range

Tag the class for CUACUUCAAACAAUGUGUCUG [Fam1A.1 aminoacylation ribozyme variant]
lower range

* * *

Give measured self-aminoacylation for each item. Keep answers brief.
# System: biotinyl-Leu-oxazolone
# ASSAY_REMARKS: self-aminoacylation, catalytic enhancement (BLO) (fold over background); higher = more active; k-Seq, kA / k0A0; sequences stand for … in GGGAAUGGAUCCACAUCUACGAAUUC…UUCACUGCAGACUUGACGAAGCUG
Fewer inactive variants are shown than the library holds.
Answers are plain numbers.

Take each entry in turn and give its self-aminoacylation.
1. CAGCUUCAAACAAUCGGUCUG [Fam1A.1 aminoacylation ribozyme variant]
2. AAGUUUGCUAAUAGUACCAAG [Fam3.1 aminoacylation ribozyme variant]
3. AUCACCCAGGUCAUCGAGUGA [Fam2.1 aminoacylation ribozyme variant]
4. CCAAACUUCAAGCGAUCGGUC [Fam1B.1 aminoacylation ribozyme variant]
5. AAGUUUGCUAAUAGGCGCACG [Fam3.1 aminoacylation ribozyme variant]

1. 2.01
2. 0.791
3. 8.69
4. 1.32
5. 0.865

Take each entry in turn and give its self-aminoacylation.
1. CUAUUUCAAACAAUCGGUCUU [Fam1A.1 aminoacylation ribozyme variant]
2. AUUACCCUGGUCAUGGUGUGA [Fam2.1 aminoacylation ribozyme variant]
3. CUUCACCUAGUUCAUCGGGUG [Fam2.2 aminoacylation ribozyme variant]
4. CUACUCCAAACAAUCCGUCUG [Fam1A.1 aminoacylation ribozyme variant]

0.792
1.84
2.87
0.759
